procedureText: yeast display, Sf9 membrane polyspecificity reagent, FACS + sequencing; frameworks hold sequencing errors
assayReadout: polyreactivity (PSR sort gate)

Endpoint output: polyreactivity (PSR sort gate) of "QVQLVESGGGLVQAGGSLRLSCAASGIILRYYAMGWYRQAPGKERELVAAITRGGSTNYADSVKGRFTISRDNAKNTVYLQMNSLKPEVTAVYYCAADVVFWFSNVAWRDFGYWGQGTQVTVSS" . Value?
low polyreactivity

For "QVQLVESGGGLVQAGGSLRLSCAASGIIFQRNDMGWYRQAPGKERELVANIRDGGITYADSVKGRFTISRDNAKNTVYLQMNSLKPEDTAVYYCARDDTSPGFGDQSSNAAYYYWGQGTQVTVSS" then?
low polyreactivity

---

procedureText: yeast display, Sf9 membrane polyspecificity reagent, FACS + sequencing; frameworks hold sequencing errors
assayReadout: polyreactivity (PSR sort gate)

Example entries and their recorded answers appear below.
Could you tell me which polyreactivity (PSR sort gate) is on file for "QVQLEESGGGLVQAGGSLRISCAAYGRTLRQYALGWYRQAPGKERELVAAISRGGSTTYADSVKGRFTISRDNAKNTVYLQMNSLKPEDTAVYYCAAVSSKGNRHEYDYWGQGTQVTVSS" ?
low polyreactivity

Param item: "QGQLVVSGGGLVQAGGSLRLSCAASGRISSSYAMGWYRQAPGKEREFVAAIRSSGGSTYYADSVKGRFTISRDYAKNTVYLQMISLKPVDTAVYYCNKVGFYQSRKYYYWGQATQVTVSS"
high polyreactivity

Query "QVQLQESGGGLVQAGGGLRLSCAESGTISGPHVMRWYRQATGKEREFVAAINVGAYTYYADNVKGRFTISRDNEKNTVYLQMNSLKPEDTAFYYCAAFARYSRRYYYWGQGTQVTVSS" next
low polyreactivity

Now this one: "QVQLVESGGGLVQAGGSLRLSCAASGRIFYPYAMGWYRQAPGKERELVASITSGGGTYYADSVKGRFTISRDNAKNTVYLQMNSLKPEDTAVYYCAAKYYTSWIRYDYWGQGTQVTVSS"
low polyreactivity

Next record, please: "QVQLEESGGGLVQAGGSLRFSCAASGSIMTRNAMGWYRQPTGKEMELVAAITGSGGRTYYADSVKGRFSISRDNAKKTFFLQMTSLIPEDTAVYYCATRYGREDYWGQGTQVNVSS"
high polyreactivity

Continuing:
Name the recorded polyreactivity (PSR sort gate) for "QVQLVESGGGLVQAGGSHRLSCAASGRTFLTNAMGWYRQAPGKERELVAAIRWSGTSTYYADSVKGRFTISRDNAKNTVYLQMNSLKPEDTAVYYCAARKVYGSKYGYWGQGTQVTVSS" .
high polyreactivity

Now give it for "QVQLVESGGGLVQAGGSLRLSCAASGLIFYLYAMGWYRQAPGKEREFVAGINWSGGNTYADSVKGRFTISRDNAKNTVYLQLNSLKPEDTAVYYCAADSLIYTHPYQYDYWGQGTQVTVSS" too.
low polyreactivity

Input "QVQLVESGGGLVQAGGSLRLICAASGIIFWAYDMGWYRQAPGKERELVAAITWGGGSTYYADSVKGRFTISRDNAKNTVYLQMNSLKPEDTAVYYCAADRYVFQGYGPEVDYWGQGTQVTVSS"
low polyreactivity

---

procedureText: yeast display, Sf9 membrane polyspecificity reagent, FACS + sequencing; frameworks hold sequencing errors
assayReadout: polyreactivity (PSR sort gate)

May I ask what polyreactivity (PSR sort gate) has been recorded for "QVQLVESGGGLVQAGGSLRLSCAASGITFIYYAMGWYRQAPGKERELVAAISTGGSTYYADSVKGRCTISRDNAKNTVYLQRKSLKPEDTAVYFWNALRKSLRGGDYWGQGTQVTVSS" ?
high polyreactivity

Input "QVQLVESGAGLVQAGGSLRLSCAASGRTFDKYAMGWYRQAPGKDRELVAAISGSGGRTYYADSVKGSFTISRDIAKNTVYLQMNSLKPEDTAFYYCAGDTGSYTYYYWGKGTQVTVSS"
high polyreactivity
